# assayed target: UniProt Q86WV6
# Sequence (Q86WV6 whole entry): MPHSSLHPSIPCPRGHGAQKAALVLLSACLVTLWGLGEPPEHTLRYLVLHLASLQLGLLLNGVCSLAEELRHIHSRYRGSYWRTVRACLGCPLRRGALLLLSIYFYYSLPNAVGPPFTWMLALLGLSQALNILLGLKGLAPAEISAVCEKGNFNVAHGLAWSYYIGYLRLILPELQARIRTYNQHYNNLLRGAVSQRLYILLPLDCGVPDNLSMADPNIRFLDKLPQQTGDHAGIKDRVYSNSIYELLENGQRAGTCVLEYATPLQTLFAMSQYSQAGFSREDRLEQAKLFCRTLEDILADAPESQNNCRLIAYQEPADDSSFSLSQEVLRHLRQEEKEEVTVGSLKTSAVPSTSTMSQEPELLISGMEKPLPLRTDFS
# test: THP1-Dual KI-hSTING-H232 reporter assay (IRF pathway, secreted Lucia luciferase)
# Type: cell-based
# Parameters: host or cells: THP1-Dual KI-hSTING-H232 (from THP1-Dual KO-STING)
# conditions: THP1-Dual KI-hSTING-H232 cells, 24 hours; read-out: Reporter assay EC50 (nM) THP-1-H232
# Protocol: The activities of the STING agonists to activate human or mouse STING pathways were evaluated in THP-1-Dual™, THP1-Dual™ KI-hSTING-R232, THP1-Dual™ KI-hSTING-H232 Cells and THP1-Dual™ KI-mSTING Cells. […] Stimulating these reporter cells with a STING agonist activates TRF pathway and induces the production of a secreted Lucia luciferase in the cell culture medium, which can be determined using QUANTI-Luc™ reagent. […]
assay endpoint: EC50

Example compounds with recorded EC50:
compound	EC50
CCn1nc(C)cc1C(=O)Nc1nc2cc(C(N)=O)cc(OC)c2n1C/C=C/Cn1c(NC(=O)c2cn(C)nc2CN)nc2cc(C(N)=O)cc(OCCCN3CC4(CCCCO4)C3)c21 [Compound 63]	> 150 nM
CCc1nc(C)oc1C(=O)Nc1nc2cc(C(N)=O)cc(OCCCN3CC4(C3)CN(C(=O)[C@H](N)CC(C)C)CCO4)c2n1C/C=C/Cn1c(NC(=O)c2cc(C)nn2CC)nc2cc(C(N)=O)cc(OC)c21 [Compound 20]	50 to 150 nM
CCn1nc(C)cc1C(=O)Nc1nc2cc(C(N)=O)cc(OC)c2n1C/C=C/Cn1c(NC(=O)c2ccnn2CC)nc2cc(C(N)=O)cc(OCCCN3CC4(CNCCO4)C3)c21 [Compound 14]	≤ 50 nM
CCc1nc(C)oc1C(=O)Nc1nc2cc(C(N)=O)cc3c2n1C/C=C/Cn1c(NC(=O)c2cc(C)nn2CC)nc2cc(C(N)=O)cc(c21)OCC1(CNC1)CO3 [Compound 26]	≤ 50 nM

*Q* Sample CCc1nc(C)sc1C(=O)Nc1nc2cc(C(N)=O)cc(OC)c2n1C/C=C/Cn1c(NC(=O)c2sc(C)nc2CC)nc2cc(C(N)=O)cc(OCCCN3CCC(c4nnc5n4CCNC5)CC3)c21 [Compound 44] — what was its EC50?
*A* ≤ 50 nM

*Q* Sample CCn1nc(C)cc1C(=O)Nc1nc2cc(C(N)=O)ccc2n1C/C=C/Cn1c(NC(=O)c2cc(C)nn2CC)nc2cc(C(N)=O)cc(OCCCN3CC4(C3)CN(C(=O)[C@H](CC(C)C)NC(=O)CCCCCO/N=C(\C)c3ccc(C[C@H](N)C(=O)O)cc3)CCO4)c21 [LP-2-3] — what was its EC50?
*A* 50 to 150 nM

*Q* Sample CCn1nc(C)cc1C(=O)Nc1nc2cc(C(N)=O)ccc2n1C/C=C/Cn1c(NC(=O)c2cc(C)nn2CC)nc2cc(C(N)=O)cc(OCCCN3CC4(C3)CN(C(=O)CON)CCO4)c21 [LP-1-1] — what was its EC50?
*A* > 150 nM

*Q* Sample CCn1nc(C)cc1C(=O)Nc1nc2cc(C(N)=O)cc(OC)c2n1C/C=C/Cn1c(NC(=O)c2cn(C)nc2C2CNC2)nc2cc(C(N)=O)cc(OCCCN3CC4(CCCCO4)C3)c21 [Compound 62] — what was its EC50?
*A* > 150 nM

*Q* Sample CCn1nc(C)cc1C(=O)Nc1nc2cc(C(N)=O)cc(OC)c2n1C/C=C/Cn1c(NC(=O)c2cc(C)nn2CC)nc2cc(C(N)=O)cc(OCCCN3CC4(C3)CN(C(=O)[C@@H](N)CC(C)C)CCO4)c21 [Compound 16] — what was its EC50?
*A* ≤ 50 nM

*Q* Sample CCn1nc(C)cc1C(=O)Nc1nc2cc(C(N)=O)ccc2n1C/C=C/Cn1c(NC(=O)c2cc(C)nn2CC)nc2cc(C(N)=O)cc(OCCCN3CC4(CNCCO4)C3)c21 [Compound 1] — what was its EC50?
*A* ≤ 50 nM
